Numbers sourced from paper PMC9978883.

Tested on: VCaP
Assay: Cell proliferation
Assay type: cell-based, human
Conditions: Homo sapiens, VCaP, 72 h, read-out: Growth inhibitory IC50, VCaP
Outcome Measure: pIC50
Would you please state pIC50, meaning minus log10 of the concentration in mol/L, as a bare number?

Molecule	pIC50
CSCC1CN(/N=C/c2ccc([N+](=O)[O-])o2)C(=O)O1 (stereo not drawn)	4.86

**Query** So what's the measured pIC50 for this one? O=C(N/N=C/c1ccc([N+](=O)[O-])o1)c1ccc(O)cc1 [NFZ, Nifuroxazide]
**Result** 5.58

**Query** What does the record list as pIC50 for CC(=O)c1cc2c(o1)C(=O)c1ccccc1C2=O ?
**Result** 6.64
